ASSAYED TARGET: T1, recombinant human GREM1 (hGREM1-His; C-terminal 10His tagged, R&D, #5190-GR) (human, UniProt O60565 25-184)
T1 construct: range 25-184; also called recombinant human GREM1 with a C-terminal decahistidine tag
T1 sequence: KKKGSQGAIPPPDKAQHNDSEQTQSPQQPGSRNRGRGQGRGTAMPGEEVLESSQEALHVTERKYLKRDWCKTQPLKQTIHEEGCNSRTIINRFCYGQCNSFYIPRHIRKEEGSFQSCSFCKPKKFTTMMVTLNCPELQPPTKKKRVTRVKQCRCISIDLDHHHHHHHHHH
RUN DESCRIPTION: BLI Octet, mAb captured, 100 nM GREM1 without vs with 5 uM heparin;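 further: octet Red96 biolayer interferometry at 25 °C, antibodies captured on anti-human IgG Fc biosensors, association of GREM1 measured with versus without heparin in HEPES-buffered saline, pH 7.4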
Measured Reduction in Signal from Heparin at 30 sec accompanies every entry in the list below.
Give the figure together with its unit, number first.

Some solved cases for reference:
H4H6252P (antibody, human IgG4, V domains shown, H4H prefix = human IgG4 Fc; also called H4H6252S) VH: QVQLVESGGGVVQPGRSLRLSCAASGFTFSNYGMHWVRQAPGRGLEWVAVIWFDGSNKYYADSVKGRFTISRDNSKNTLYLQMNSLRSEDTAVYYCTRDDYGDYDYPFDYWGQGTLVTVSS VL: DIQMTQSPSSLSASVGDRVTITCRASQGIRNDLGWYQQKPGKAPKRLIYAASSLQSGVPSRFSGSGSGTEFTLTISSLQPEDFATYYCLQYNTYPPFTFGPGTKVDIK
0.19 nm
H4H2783N2 (antibody, human IgG4, V domains shown, H4H prefix = human IgG4 Fc) VH: EVQLLESGGGLVQPGGSLRLSCAASGFTFSSYVMNWVRQAPGKGLEWVSAISGSGGSTYYADSVKGRSTISRDNSKNTLYLQMNSLRAEDTAIYYCAKGDIAAIVFDAFDIWGQGTVVTVSS VL: DIQMTQSPSSLSASVGDRVTITCQASQDISSALNWYQHKPGKAPKLLIYDASYLETGVPSRFSGSGSGTDFTFTISSLQPEDIATYYCQQYDNLPYTFGQGTKLEIK
0.28 nm
H4H6246P (antibody, human IgG4, V domains shown, H4H prefix = human IgG4 Fc) VH: QVQLVESGGGVVQPGRSLRLSCAASGFTFSSYGMHWVRQAPGKGLEWVAIIWYDGSNRYYADSVKGRFTISRDNSRNTLYLQMNSLRAEDTAVYYCARDEYGDYDYPFDYWGQGTLVTVSS VL: DIQMTQSPSSLSASVGDRVTITCRASQGIRNDLGWFQQKPGKAPKRLIYAASSLQSGVPSRFSGSGSGTEFTLTISSLQPEDFATYYCLQHNTYPPFTFGPGTKVDIK
0.13 nm
H4H6245P (antibody, human IgG4, V domains shown, H4H prefix = human IgG4 Fc) VH: EVQLVESGGGLVQPGGSLRLSCAASGFTFNSFWMSWVRQAPGKGLEWVANIKQDGSEKYYVDSVKGRFTISRDNAKNSVYLQMNSLRAEDTAVYYCARDLVTSFDYWGQGTLVTVSS VL: DIQMTQSPSSLSASVGDRVTITCQASQDINNYLNWYQQKPGKAPKLLIYDASYLETGVPSGFSGSGSGTDFTFTISSLQPEDIATYYCQQYDSLPYTFGQGTKLEIK
0.21 nm

Then there is this binder:
Problem: I am curious: what Reduction in Signal from Heparin at 30 sec value has been reported for H4H2892N (antibody, human IgG4, V domains shown, H4H prefix = human IgG4 Fc) VH: QVQLVESGGGVVQPGRSLRLSCAASGFTFSSYGIHWVRQAPGKGLEWVAILWYDGSNKYYADSVKGRFTISRDNSKTTLYLQMNSLRAEDTAVYYCARENYNDLNFDLWGRGTLVTVSS VL: DIQLTQSPSFLSASVGDRVTITCWASQGISSYLAWYQHKPGKAPKLLIYAASTLQSGVPSRFSGSGSGIEFTLTISSLQPEDFATYYCQQLKSYPPWTFGQGTKVEIR ?
Result: 0.05 nm
